Value source: PubChem BioAssay

assay: inhibition of 3D7 malaria parasite growth – strain 3D7 (AID 2306);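 further: 0% = DMSO wells and 100% = chloroquine plus artemisinin control wells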; settings: P. falciparum 3D7 erythrocytic growth, LDH absorbance, 72 h; at 2 µM; stronger effect = higher value
assayEndpoint: growth inhibition (%)
Kindly provide the numeric value in % only, without the unit symbol.

Qu. Entry under review: Nc1c2c(nc3ccc(NC(=O)c4ccccc4)cc13)CCCC2 . Reported growth inhibition?
Ans. 99

---

molecular target: L-lactate dehydrogenase (Plasmodium falciparum (isolate CDC / Honduras)); assay: PfLDH activity inhibition – cell lysate, 3D7 strain, counter-screen for P. falciparum growth inhibition project (AID 2304);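 further: 0% = vehicle and 100% = reference inhibitor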; conditions: P. falciparum 3D7 crude extract, LDH APAD/NBT absorbance; at 2 µM; stronger effect = higher value
assayEndpoint: inhibition (%)
Kindly provide the numeric value in % only, without the unit symbol.

Qu. Entry under review: Cc1ccc(NC(=O)c2ccc(CN3CCCN(Cc4cccc(C#N)c4)CC3)cc2)cc1F . Reported inhibition?
Ans. -3

Qu. Next record, please: COc1ccc2nc3cc(Cl)ccc3c(Nc3ccc(O)c(CN4CC5CCC(CC5)C4)c3)c2c1
Ans. 3

Qu. Next record, please: CNC(=O)c1cnc(Nc2ccc(N3CCN(C)CC3)cc2)nc1Nc1cccc([N+](=O)[O-])c1
Ans. -8

Qu. Next record, please: O=S(=O)(c1ccc2ccccc2c1)N1CCCN(Cc2ccc(OCCCN3CCCCC3)cc2)CC1
Ans. -3

Qu. Next record, please: CC(C)Sc1nc2c(c(=O)n1CCc1ccccc1)C1(CCCCC1)Cc1ccccc1-2
Ans. 1

---

assay: HepG2 cytotoxicity, primary screen, cytotoxicity control for P. falciparum antimalarial project, cell-based, ATP luminescence (AID 2303); settings: HepG2 viability, 24-48 h, at 10 µM, stronger effect = higher value;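 further: 0% = DMSO wells and 100% = digitonin-killed cells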
inhibition reference
Kindly provide the numeric value in % only, without the unit symbol.

>>> testvalue("CSC1=NC(=Nc2c(C)cccc2C)C2(CCCCC2)N1c1ccccc1Cl")
22
>>> testvalue("CN1CCC(C(=O)Nc2cccc(-c3ccc(-c4nc5ccc(C(F)(F)F)cc5[nH]4)cc3)c2)CC1")
38
>>> testvalue("CC(C)NCc1cccc(-c2cccc(NC(=O)c3ccc(C#N)cc3)c2)c1")
18
>>> testvalue("CC(C)CNCc1ccc(-c2cccc(CN(C(=O)NCCc3ccccc3)C3CCN(Cc4ccccc4)CC3)c2)cc1")
91
>>> testvalue("Cc1nc2nc(N)nc(N)c2c(C)c1Cc1ccccc1Cl")
63

Qu. Entry under review: Cc1ccc2nc(-c3ccccc3Nc3ccnc4cc(-c5nccs5)ccc34)[nH]c2c1 . Reported inhibition?
Ans. 40

Qu. Next record, please: O=C(/C=C/c1ccc(Cl)c(Cl)c1)NCCCCCN1CCC(NC(=O)Nc2ccc(Oc3ccccc3)cc2)C1 (centres undefined)
Ans. 35

Qu. Next record, please: COC(=O)c1cccc(CNCc2cccc(-c3ccc(-c4nc5ccccc5[nH]4)cc3)c2)c1
Ans. -3

Qu. Next record, please: CC(=O)Nc1nc(C(=O)Nc2ccc(-c3cccc(-c4nc5c(C)cccc5[nH]4)c3)cc2)cs1
Ans. 100

Qu. Next record, please: CN1CCC(NCc2ccc(-c3ccc(S(=O)(=O)NCc4ccccc4)s3)cc2)CC1
Ans. 77

Qu. Next record, please: COc1ccc(Nc2nc(NCc3ccc(-n4ccnc4)cc3)cc(-c3ccc(OC)cc3)n2)cc1
Ans. 8

Qu. Next record, please: Cn1cnc2nc(NCCc3ccccc3)nc(NCc3cccc4ccccc34)c21
Ans. 16

Qu. Next record, please: Cc1cc(N(C)CCN(C)C)nc(Nc2ccc(Cl)cc2)n1
Ans. -1

Qu. Next record, please: CCCCCCN1CCC(NCc2ccc(CN(C)C)cc2)CC1
Ans. 18

Qu. Next record, please: CCCc1cn2c3c(cc(C(=O)N[C@@H](Cc4ccccc4)[C@H](O)CNC4CCOCC4)cc13)N(CC)S(=O)(=O)CC2
Ans. 2

Qu. Next record, please: CC(CN(C)C)C(=O)Nc1ccc(-c2ccc(-c3nc4ccc(F)cc4[nH]3)cc2)cc1 (centres undefined)
Ans. 14

Qu. Next record, please: O=C(NCCCCN1CCC(c2c[nH]c3ccccc23)CC1)c1sc(-c2ccc(C(F)(F)F)cc2)nc1CO
Ans. 34

Qu. Next record, please: CS(=O)(=O)CCNCc1cc(-c2cc3ncnc(Nc4ccc(OCc5cccc(F)c5)c(Cl)c4)c3s2)cs1
Ans. 8

Qu. Next record, please: O=C(NCC1CCN(Cc2ccc3c(c2)OCCO3)C1)c1cc(-c2cccc(C(F)(F)F)c2)cs1 (centres undefined)
Ans. 31

---

experiment: antimalarial activity against Dd2 strain (AID 2302);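 further: 0% = DMSO untreated growth and 100% = chloroquine plus artemisinin killed control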; settings: P. falciparum Dd2 in RBCs, LDH growth readout, 72 h; at 2 µM; stronger effect = higher value
Calls of active or inactive are those of the source.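 The calls were made as follows: active = growth inhibition above 50% at the single 2 µM test dose, taken to imply half-maximal potency below 2 µM; inactive = the rest.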
growth inhibition reference

>>> testvalue("O=[N+]([O-])c1cc(C=NNc2nc3nonc3nc2Nc2ccc(F)cc2)c(Cl)cc1Cl")
"13% (inactive)"
>>> testvalue("CCCCCN1CCCC1CNS(=O)(=O)c1cccc(C(=O)Nc2cccc(C(F)(F)F)c2)c1 (centres undefined)")
"12% (inactive)"
>>> testvalue("O=C(Cc1cccnc1)N(Cc1ccc(-c2ccc(CNCc3cccnc3)cn2)cc1)C1CCN(Cc2ccccc2)CC1")
"6% (inactive)"
>>> testvalue("Cc1ccc(-c2cccc3c(NC(=O)Nc4ccc5nccc(N6CCN(C)CC6)c5c4)cccc23)cn1")
"89% (active)"
>>> testvalue("CN1CCN(c2ccnc3ccc(NC(=O)Nc4ccc(Cl)cc4)cc23)CC1")
"99% (active)"
>>> testvalue("CCC(COCc1ccc(Cl)cc1)N(C)CCN(C)C(CC)COCc1ccc(Cl)cc1 (centres undefined)")
"78% (active)"
>>> testvalue("CCn1c(-c2cc(C)on2)nc2cnc(Oc3ccc(C(=O)N4CC(=O)N(C)C4C(C)(C)C)cc3)cc21 (centres undefined)")
"57% (active)"
>>> testvalue("CCNc1cc(C(=O)N[C@@H](Cc2ccccc2)[C@H](O)CNC2(CC)CCCCC2)cc(N2CCCCS2(=O)=O)c1")
"98% (active)"

Note: attention shifts to another entry.
Qu. Entry under review: Cc1cc(NCCc2ccccc2)nc(/N=C(\N)Nc2ccc(Cl)cc2)n1 . Reported growth inhibition?
Ans. 100% (active)

---

experiment: inhibition of 3D7 malaria parasite growth – strain 3D7 (AID 2306);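 further: 0% = DMSO wells and 100% = chloroquine plus artemisinin control wells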; conditions: P. falciparum 3D7 erythrocytic growth, LDH absorbance, 72 h; at 2 µM; stronger effect = higher value
growth inhibition reference
Kindly provide the numeric value in % only, without the unit symbol.

>>> testvalue("FC(F)(F)c1cnc(Sc2nnc(-c3ccncc3)o2)c(Cl)c1")
96

Qu. Entry under review: O=C(NCCCc1ccccc1)c1ccc(O)c(-c2cc(Cl)cc(Cl)c2)c1 . Reported growth inhibition?
Ans. 99

Qu. Next record, please: COc1ccc(-c2cncc(-c3ccc(OC)c(OC)c3)n2)cc1OC
Ans. 95

---

assay: antimalarial activity against Dd2 strain (AID 2302);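 further: 0% = DMSO untreated growth and 100% = chloroquine plus artemisinin killed control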; details: P. falciparum Dd2 in RBCs, LDH growth readout, 72 h; at 2 µM; stronger effect = higher value
Please note: rule met applies when growth inhibition is 70% or greater, and rule not met applies otherwise.

>>> assignedlabel("COc1cccc(C2=CC(C)(C)Oc3cc(OCCN(C)C)ccc32)c1")
"rule met"
>>> assignedlabel("O=C(CC(=O)C(F)(F)F)c1ccc2c(c1)OCO2")
"rule not met"
>>> assignedlabel("CNCCNCc1cccc(-c2cccc(-c3nc4ccc(F)cc4[nH]3)c2)c1")
"rule not met"
>>> assignedlabel("Cc1cc2nc(-c3ccc(C(=O)NC4CCN(Cc5ccccc5)CC4)cc3)[nH]c2cc1C")
"rule met"
>>> assignedlabel("N#Cc1ccc(CCNc2nccc(-c3cccc(CN4CCNCC4)c3)n2)cc1")
"rule not met"
>>> assignedlabel("Cc1cc(Nc2ccc(C)c(Cl)c2)n2nc(C(F)(F)F)nc2n1")
"rule met"

Qu. Hello, I need to know if COc1ccc2nccc([C@@H](O)CN3CCC(NC(=O)c4ccc5cc[nH]c5c4)CC3)c2c1 has measured growth inhibition not below 70%. Thanks!
Ans. rule not met

Qu. Next record, please: CC(C)(C)OC(=O)NCc1ccc(Nc2nnc(-c3ccc(OCC(=O)NCc4ccc(C(C)(C)C)cc4)c([N+](=O)[O-])c3)o2)cc1
Ans. rule met

Qu. Next record, please: FC(F)(F)Oc1ccc(Nc2cc(-c3ccncc3)nc(-c3cccnc3)n2)cc1
Ans. rule not met

Qu. Next record, please: Cc1c2ccc(N(C)c3ccnc(Nc4ccc5c(c4)nc(NC(C)C)n5C)n3)cc2nn1C
Ans. rule met

Qu. Next record, please: Cc1cccc2[nH]c(-c3ccc(-c4ccc(CN5CCC(C(N)=O)CC5)cc4)cc3)nc12
Ans. rule not met

---

assay: inhibition of 3D7 malaria parasite growth – strain 3D7 (AID 2306);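 further: 0% = DMSO wells and 100% = chloroquine plus artemisinin control wells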; conditions: P. falciparum 3D7 erythrocytic growth, LDH absorbance, 72 h; at 2 µM; stronger effect = higher value
assayEndpoint: growth inhibition (%)
Kindly provide the numeric value in % only, without the unit symbol.

Examples with answers:
>>> testvalue("COc1ccccc1C(C)NCC(=O)Nc1cccc(C(=O)Nc2cccc(C(F)(F)F)c2)c1 (centres undefined)")
91
>>> testvalue("Cc1c(-c2ccc(C(=O)NC3CC(C)(C)NC(C)(C)C3)cc2)[nH]c2cc(Cl)c(Cl)cc12")
98
>>> testvalue("COc1ccc(OC)c(-c2ccc(=O)n(CC(=O)Nc3cccc4ccccc34)n2)c1")
101
>>> testvalue("Oc1ccc(CCNc2nc(NCc3ccccc3-c3cccc(Cl)c3)nc(N3CCNCC3)n2)cc1")
84

Qu. Entry under review: CN1CCN(CC(=O)Nc2cccc(-c3ccc(-c4nc5ccc(C(F)(F)F)cc5[nH]4)cc3)c2)CC1 . Reported growth inhibition?
Ans. 102

Qu. Next record, please: COC(=O)c1ccc(OCC(C)NCC(O)c2cccc(C(F)(F)F)c2)cc1 (centres undefined)
Ans. 94

Qu. Next record, please: Cc1cc(NCCc2ccccc2)nc(/N=C(\N)Nc2cccc([N+](=O)[O-])c2)n1
Ans. 102

Qu. Next record, please: O=C(Nc1cccc(-c2ccc(-c3nc4ccccc4[nH]3)cc2)c1)c1csnn1
Ans. 91

Qu. Next record, please: CCc1c(CCNCCCCCCNCCc2ccc(OC)c(OC)c2C)ccc(OC)c1OC
Ans. 98
